We begin with a simple list: items and their reported pIC50.
Test system: 996289-038-R-J1-PDC spheroid viability;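 also: spheroids exposed to compounds for seven days before viability read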
procedure-details: Anticancer human tumor 996289-038-R-J1-PDC patient-derived colon adenocarcinoma cell line growth inhibition [PI3K]
condition-parameters: curve of first compound; second compound 0.00316 µM; spheroids with HUVEC and MSC
Please report pIC50 as the negative decimal logarithm of the molar concentration, giving only the number.

molecule | pIC50
Cn1ncc(Cl)c1-c1cc(C(=O)NC(CN)Cc2cccc(F)c2)sc1Cl (stereo not given) + COc1c(OCCCN2CCOCC2)ccc2c3n(c(=NC(=O)c4cnc(N)nc4)nc12)CCN3 | 5.30

Inquiry: Identify pIC50 associated with the molecule CC1(C)CCC(Nc2ncc(C(F)(F)F)c(-c3c[nH]c4c(P(C)(C)=O)c(C#N)ccc34)n2)CN1 (stereo not given) + CC(Nc1ccc2c(c1)OCCn1cc(N3C(=O)OCC3C(F)F)nc1-2)C(N)=O
Reply text: 5.17
